For each entry below, report its log10(Ki) value.
Target of assay: α-chymotrypsin (Bos taurus, UniProt P00766)
Test: α-Chymotrypsin inhibition assay
A difference of one corresponds to tenfold Ki; all values are log10 with Ki in µM.

q: Please look up its log10(Ki): N/C(=N\O)c1cccc(CN(NS(=O)(=O)c2ccc3ccccc3c2)C(=O)N2CCOCC2)c1
a: 1.61

q: How about this compound: Nc1ccc(CN(NS(=O)(=O)c2ccc3ccccc3c2)C(=O)N2CCOCC2)cc1
a: 0.60

q: How about this compound: CC1CCN(C(=O)N(Cc2ccc(C#N)cc2)NC(=O)c2ccc3ccccc3c2)CC1
a: 2.44

q: How about this compound: CC(=O)Nc1ccc(CN(NS(=O)(=O)c2ccc3ccccc3c2)C(=O)N2CCOCC2)cc1
a: 1.39

q: How about this compound: CC1CCN(C(=O)N(CC2CCNCC2)NS(=O)(=O)c2ccc3ccccc3c2)CC1
a: 1.59

q: How about this compound: O=C(N1CCCCC1)N(CC1CCNCC1)NS(=O)(=O)c1ccc2ccccc2c1
a: 1.82

q: How about this compound: CC1CCN(C(=O)N(Cc2ccc(/C(N)=N\O)cc2)NC(=O)c2ccc3ccccc3c2)CC1
a: 2.41

q: How about this compound: N/C(=N/O)c1ccc(CN(NC(=O)c2ccc3ccccc3c2)C(=O)N2CCCCCC2)cc1
a: 1.53

q: How about this compound: N=C(N)N1CCC(CN(NS(=O)(=O)c2ccc3ccccc3c2)C(=O)N2CCCCCC2)CC1
a: 1.46

q: How about this compound: CC1CCN(C(=O)N(Cc2cccc(C(=N)N)c2)NC(=O)c2ccc3ccccc3c2)CC1
a: 1.23

q: How about this compound: CC(=O)NCc1ccc(CN(NS(=O)(=O)c2ccc3ccccc3c2)C(=O)N2CCCCC2)cc1
a: 1.61

q: How about this compound: N=C(N)N1CCC(CN(NS(=O)(=O)c2ccc3ccccc3c2)C(=O)N2CCCCC2)CC1
a: 1.44

q: How about this compound: CC(=O)N1CCC(CN(NS(=O)(=O)c2ccc3ccccc3c2)C(=O)N2CCCCC2)CC1
a: 1.68

q: How about this compound: O=C(N1CCOCC1)N(CC1CCNCC1)NS(=O)(=O)c1ccc2ccccc2c1
a: 2.18

q: How about this compound: N/C(=N\O)c1cccc(CN(NC(=O)c2ccc3ccccc3c2)C(=O)N2CCCCCC2)c1
a: 0.48

====

Target of assay: trypsin-like activity of human 20S proteasome (Homo sapiens, UniProt Q99436)
For each entry below, report its pKi value.
Lab note — pKi values are minus log10 of concentrations in M.

q: Please look up its pKi: N=C(N)N1CCC(CN(NS(=O)(=O)c2ccc3ccccc3c2)C(=O)N2CCCCCC2)CC1 [Compound 16]
a: 4.77

q: How about this molecule: N=C(N)N1CCC(CN(NS(=O)(=O)c2ccc3ccccc3c2)C(=O)N2CCCCC2)CC1 [Compound 15]
a: 4.89

====

Target of assay: α-chymotrypsin (Bos taurus, UniProt P00766)
Test: α-Chymotrypsin inhibition assay
Test context: read-out: Ki α-chymotrypsin; substrate Suc-Ala-Ala-Pro-Phe-AMC, pH 7.8, 30°C
Assay metric: Ki (µM)
The figure you give is taken to be in µM; do not add the unit.

q: Observed Ki on α-chymotrypsin (Bos taurus, UniProt P00766) for CC(C)CC(NS(=O)(=O)c1ccc2ccccc2c1)C(=O)NN(Cc1ccc(C(=N)N)cc1)C(=O)N1CCCCCC1 (stereo not shown) [Compound 10] , please.
a: 8.8

====

Test system: peripheral blood mononuclear cells (PBMC)
Test: Metabolic activity assay (MTS), PBMC
Format: cell-based, human
Test context: 50 µM, 24 h
Assay metric: residual metabolic activity relative to control

{"Molecule": "CC(=O)N1CCC(CN(NS(=O)(=O)c2ccc3ccccc3c2)C(=O)N2CCCCC2)CC1 [Compound 14]", "Observed value": "under 40%"}
{"Molecule": "CC1CCN(C(=O)N(CC2CCNCC2)NS(=O)(=O)c2ccc3ccccc3c2)CC1 [Compound 11]", "Observed value": "under 40%"}
